- Assay Info: growth suppression of PTEN-deleted HCT116, pilot screen, cell-based, HCT116 clonal line, CellTiter-Glo (AID 824);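 also: 0% = 20 µM Hyamine control and 100% = vehicle cell control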
- Measurement Context: 60 h, at 10 µM, active compounds read low
Inconclusive results are not listed.
# note: exactly 90% is not below, so it is rule not met; use rule met for viability strictly under it

Worked cases, answers included:
COc1ccc(OC)c(N(CC(=O)NC2CC2)S(=O)(=O)c2ccc(C)cc2)c1	rule not met
CSC1=N/C(=C\c2ccc(C)o2)C(=O)S1	rule not met
O=C(CSc1ncnc2nc[nH]c12)N1CCOCC1	rule not met

Ask: Find out if reported viability for CCCCS(=O)CC(COc1ccc(Cl)cc1)OC(=O)c1ccccc1 (stereo not drawn) is less than 90%
Reply: rule met

Ask: Find out if reported viability for COC(=O)c1ccc(OC(=O)c2nn(C)cc2Cl)c(OC)c1 is less than 90%
Reply: rule not met

Ask: State whether 90% exceeds viability recorded for Cc1ccc(CCNC(=O)CS(=O)Cc2nc(-c3cccc(C)c3)oc2C)cc1 (stereo not drawn) .
Reply: rule met

Ask: In plain terms, does c1ccc2c(c1)[nH]c1nc3nncn3nc12 come in under 90% for viability?
Reply: rule not met

Ask: Criterion: viability strictly below 90%. Is it met by CCOC(=O)N1CCN(C(=O)CCSc2ccccc2)CC1 ?
Reply: rule not met

Ask: Determine if CCC1Oc2nc(SC)nnc2-c2ccccc2N1C(=O)c1ccccc1 (stereo not drawn) shows viability strictly lower than 90%.
Reply: rule met

====

- Assay Info: growth suppression of beta-catenin knockout HCT116, pilot screen, human colon tumor cells (AID 823);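 also: 0% = wells killed by 20 µM Hyamine and 100% = untreated DMSO cell wells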
- Measurement Context: CellTiter-Glo, 60 h, at 10 µM
Inconclusive results are not listed. The source made the active and inactive calls.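 The calls were made as follows: active = cell viability at or below a set limit in both duplicate runs, the limit being the all-compound median minus 4 SD (cut at about 23% in these data, passing the limit was not always enough); inconclusive = no clear call, values can overlap the other calls; inactive = the rest.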
Your response should consist of one outcome taken from active, inactive

Sample answers from the record:
COc1cccc(C(=O)Nc2ccc3nc(N4CCN(c5ncccn5)CC4)cc(C)c3c2)c1OC	active
COc1cccc(NC2=CC(=O)CC(C)(C)C2)c1	inactive
CCc1nnc(NC(=O)CSc2nc3c(c(=O)n2CC)SC(C)C3)s1 (centres undefined)	inactive
Cc1ccc(-n2c3c(cc(C(=O)N4CCN(C)CC4)c2=O)C(=O)CC(C)(C)C3)cc1	inactive
Cc1noc(C(=O)Nc2c(C)nn(Cc3ccccc3)c2C)c1Cl	inactive
O=C(NCc1ccccn1)Nc1cccc(Cl)c1	inactive
CCOC(=O)c1c(NC(=O)c2ccco2)sc2c1CCCC2	inactive
COC(=O)C1C(O)=C(C(C)=N)C(=O)CC1(C)C (centres undefined)	inactive

Ask: Please share the test call associated with CCOC(=O)CNC(=O)Cn1cnc2sc(C)c(S(=O)(=O)N3CCC(C)CC3)c2c1=O .
Reply: inactive

====

# growth inhibition annotations
- Assay Info: Restrictive medium S. cerevisiae growth inhibition, OD615, pilot screen of yeast lifespan reduction project, restrictive growth control (AID 706);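 also: modified DeaD lifespan yeast strain shifted to restrictive glucose medium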
- Measurement Context: OD615, 48 h, at 10 µM, active compounds read high
Give the value, in units of %, as a plain number.

Solved entries:
O=C(OCCNc1ncc(C(F)(F)F)cc1Cl)c1ccc(S(=O)(=O)N2CCOCC2)cc1	-18.4
Cc1cc(-n2c(SCCC#N)nnc2-c2cccnc2)ccc1Cl	-22.3
CC(=O)NCc1nc2ccccc2n1Cc1ccccc1F	-15.8
CC(=O)Nc1ccc(S(=O)(=O)NC2=NCN(CCOC(=O)c3ccccc3)CN2)cc1	5.12
COC(=O)N1CC(C)N(C(=O)OC)CC1C (stereo not drawn)	3.85
CCOc1cccc(C2c3c(oc4cc(C)c(C)cc4c3=O)C(=O)N2CCCN(C)C)c1 (stereo not drawn)	-0.895

Ask: I am curious: what growth inhibition value has been reported for CCOC(=O)c1oc2cc(O)ccc2c(=O)c1-c1ccccc1OC ?
Reply: -0.685

Ask: Find the recorded growth inhibition belonging to Cc1ccc(N2CC(c3nc4ccccc4[nH]3)CC2=O)c(C)c1 (stereo not drawn) and report it.
Reply: -17

Ask: Given the entry Brc1cccc(-c2nnc3sc(CNC4CCCC4)cn23)c1 , report its measured growth inhibition.
Reply: 5.62

Ask: Request the reported growth inhibition associated with CCOC(=O)C1CCN(S(=O)(=O)c2cccc3nonc23)CC1
Reply: -10.7

Ask: Quick one: growth inhibition for COc1ccc(-n2c(Cc3cccn3C)nnc2SCC(=O)N2CCC(C)CC2)cc1 ?
Reply: 18.8

Ask: Quick check: growth inhibition of c1ccc(CNc2nc3ccccc3n3cnnc23)nc1 ?
Reply: -8.93

Ask: Dear colleague, I am looking for the recorded growth inhibition of the following compound: CCN(CC)C(=O)CN(Cc1ccccc1)S(=O)(=O)c1ccc(F)cc1
Reply: -11.4

Ask: Which value of growth inhibition has been reported for COc1cccc(C(=O)Nc2cc(=O)n(C)c(=O)n2C)c1 in the records?
Reply: -8.35

Ask: Reported growth inhibition, compound Fc1ccc(Cc2nnc(-c3cccs3)o2)cc1 : ____
Reply: -0.63

Ask: Quick one: growth inhibition for CC(=O)c1cccc(NC(=O)C2CCCN(S(=O)(=O)c3cccc4cccnc34)C2)c1 (stereo not drawn) ?
Reply: -5.17

Ask: Quick one: growth inhibition for CCOC(=O)c1ccc2c(c1)NC(=O)C(N1CCN(c3ccc(OC)cc3)CC1)S2 (stereo not drawn) ?
Reply: -5.2

====

- Assay Info: growth suppression of beta-catenin knockout HCT116, pilot screen, human colon tumor cells (AID 823);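 also: 0% = wells killed by 20 µM Hyamine and 100% = untreated DMSO cell wells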
- Measurement Context: CellTiter-Glo, 60 h, at 10 µM
Records with an inconclusive call do not appear. Activity calls are given as the source filed them.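 How the source made its calls: active means cell viability at or below a set limit in both duplicate runs, the limit being the all-compound median minus 4 SD (cut at about 23% in these data, passing the limit was not always enough); inconclusive means no clear call, values can overlap the other calls; inactive means the rest.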
Lab note: assign the record to one of active, inactive

# count of solved cases: 4
CC(=O)Oc1ccc(C(=O)Nc2nccs2)cc1	inactive
CCOc1ccc(C(=O)CCNC(Cc2cnc[nH]2)C(=O)O)cc1 (stereo unspecified)	inactive
OCCOCCn1c(-c2ccccc2)nc(=S)c2c1CCCC2	inactive
O=C(O)CCc1n[nH]c(=S)[nH]c1=O	inactive

Ask: Recorded test call requested for CCOc1cccc2sc(NC(=O)c3ccc(Br)s3)nc12
Reply: inactive

Ask: Look up the recorded call for O=C(CCc1nc2ccccc2[nH]1)NCc1ccc2c(c1)OCO2 in this test.
Reply: inactive

Ask: Could you kindly confirm the outcome this assay logged for Nc1ccccc1SCc1cn2cccnc2n1 ?
Reply: inactive

Ask: Recorded test call requested for Cc1ccc(Cn2nnc3c(=O)n(Cc4ccccc4C)cnc32)cc1
Reply: inactive

Ask: Call for entry COc1ccc(OC)c2[nH]c(=O)c(CCNC(C)=O)cc12 :
Reply: inactive

Ask: So what was the verdict on COc1cccc(C(=O)Nc2ccc(S(=O)(=O)Nc3onc(C)c3C)cc2)c1 in this test?
Reply: inactive

Ask: Kindly provide the recorded test outcome for the following compound: Cc1cc(C)n(-c2nc(NC(C)(C)C)nc(NC(C)(C)C)n2)n1
Reply: active

====

- Assay Info: OD615 S. cerevisiae growth inhibition, permissive medium, pilot counter-assay, permissive growth control for S. cerevisiae lifespan shortening project (AID 705)
- Measurement Context: OD615, 24 h, at 10 µM
Activity calls are given as the source filed them.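 Rule for the calls: active = growth inhibition above 25% in both replicates, a cutoff set 3 SD above the mean; inconclusive = above 25% in only one replicate; inactive = the rest.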
Reply using exactly one outcome from active, inactive

Example cases with answers are listed next.
CCCC(=O)C1=C(O)C(C(=O)OC)C(C)(C)CC1=NC (centres undefined)	inactive
C=CCNc1ncnc2c1cnn2-c1cccc(C)c1	inactive
CCC(C)NC(=O)C1CCN(S(=O)(=O)c2cccc3cccnc23)CC1 (centres undefined)	inactive

Ask: Tell me the assay call for O=C(Nc1nc(-c2ccccn2)cs1)c1ccc(Cl)s1 please.
Reply: active

Ask: Could you please tell me the result logged for COc1ccc(COC(=O)C2=C(C)NC(=O)NC2c2ccc(O)c(OC)c2)cc1 (centres undefined) in this assay?
Reply: inactive

Ask: Returns: the outcome recorded for O=C(Cn1c(=O)oc2cc(S(=O)(=O)N3CCc4ccccc43)ccc21)NC1CCCC1 in this assay.
Reply: inactive

Ask: What did this assay record as the result for CCC(=O)N1C(C(=O)N2CCCC2)CSC1c1ccc(OC)cc1 (centres undefined) ?
Reply: inactive

Ask: Record request — test call for O=C(CSc1nnc2sc3ccccc3n12)NCc1ccc2c(c1)OCO2
Reply: inactive

Ask: Hello, I am checking results. What call was entered for CCCSC1=C(C#N)C(c2ccc(O)c(OC)c2)CC(=O)N1 (centres undefined) ?
Reply: inactive

Ask: Which result was noted for this compound in the test: CS(=O)(=O)N(CC(=O)NCc1ccco1)c1cc(C(F)(F)F)ccc1Cl
Reply: inactive

Ask: How was NC(=O)c1ccsc1NC(=O)C1CCCCC1 classified in this test?
Reply: inactive

====

- Assay Info: RAM signaling pathway blockade in yeast – S. cerevisiae, Pdr1DBD-CYC8 efflux-inhibited sensitized strain, primary screen (AID 1298);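 also: 0% = DMSO untreated cells without growth and 100% = 10 µM 1-NA-PP1 full growth; higher means more yeast growth rescued from 5-FOA killing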
- Measurement Context: S. cerevisiae cbk1-as DSE1-URA3 strain, 5-FOA growth OD615, 2 d; at 50 µM; active compounds read high
Calls of active or inactive are those of the source.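 The calls were made as follows: active = RAM network inhibition above 8.4% in each of two replicates, 3 SD over the compound average; inconclusive = above 8.4% inhibition in only one replicate; inactive = 8.4% inhibition or less in each replicate.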
Measured Property: RAM network inhibition

Examples with answers:
COc1cc(NC(=O)COc2ccc(F)cc2)nc(OC)n1	1.08% (inactive)
COc1cccc(NC(=O)c2nnn(CCc3ccccc3)c2N)c1	0.72% (inactive)
NC(=O)c1ccsc1NC(=O)C1CCCCC1	0.22% (inactive)
Cc1cc(C)c(S(=O)(=O)Nc2ccc(OCC(=O)O)cc2)c(C)c1	-0.63% (inactive)
COc1ccc(OC)c2[nH]c(=O)c(CCNC(=O)C(C)(C)C)cc12	0.89% (inactive)

We now examine a further molecule.
Ask: I am curious: what RAM network inhibition value has been reported for CC(C)(C)C1(C)OC(C(N)=O)C(C(N)=O)O1 (centres undefined) ?
Reply: 1.14% (inactive)
